Documented pest or weed control at 0.004 mg across a set of molecules
System: Boophilus microplus
Experiment: Boophilus microplus injection test (BOOPMI Injection)
Type: in vivo
Conditions: Rhipicephalus microplus, 168 h; 4 μg/animal, injection into adult engorged female ticks, egg deposition after 7 days; read-out: activity (efficacy, infertile eggs)

>  <molecule>
C[C@H](Nc1nc2cc(C(F)(F)F)cc(Cl)c2o1)c1ncnn1-c1ncc(Br)s1

>  <pest or weed control at 0.004 mg (%)>
80

$$$$
>  <molecule>
Cc1nc([C@H](C)Nc2nc3cc(C(F)(F)F)c(Cl)cc3o2)n(-c2ncccn2)n1

>  <pest or weed control at 0.004 mg (%)>
100

$$$$
>  <molecule>
C[C@H](Nc1nc2cc(C(F)(F)F)c(Cl)cc2o1)c1ncnn1-c1ncc(C2COC2)cn1

>  <pest or weed control at 0.004 mg (%)>
80

$$$$
>  <molecule>
Cc1csc(-n2ncnc2[C@H](C)Nc2nc3cc(C(F)(F)F)cc(Cl)c3o2)n1

>  <pest or weed control at 0.004 mg (%)>
80

$$$$
>  <molecule>
C[C@H](Nc1nc2cc(C(F)(F)F)cc(Cl)c2o1)c1ncnn1-c1ncccn1

>  <pest or weed control at 0.004 mg (%)>
100

$$$$
>  <molecule>
C[C@H](Nc1nc2cc(Cl)cc(C(F)(F)F)c2o1)c1ncnn1-c1ncccn1

>  <pest or weed control at 0.004 mg (%)>
80

$$$$
>  <molecule>
C[C@H](Nc1nc2cc(C(F)(F)F)cc(Cl)c2o1)c1ncnn1-c1ccc(C(F)(F)F)cn1

>  <pest or weed control at 0.004 mg (%)>
100

$$$$
>  <molecule>
CC(C)c1cc(Cl)c2oc(N[C@@H](C)c3ncnn3-c3ncccn3)nc2c1

>  <pest or weed control at 0.004 mg (%)>
80

$$$$
>  <molecule>
Cc1nc([C@H](C)Nc2nc3cc(C(F)(F)F)cc(Br)c3o2)n(-c2ncccn2)n1

>  <pest or weed control at 0.004 mg (%)>
100

$$$$
>  <molecule>
C[C@H](Nc1nc2cc(C(F)(F)F)c(Cl)cc2o1)c1ncnn1-c1ccc(C#N)cn1

>  <pest or weed control at 0.004 mg (%)>
100

$$$$
>  <molecule>
C[C@H](Nc1nc2cc(C(F)(F)F)cc(C(F)(F)F)c2o1)c1ncnn1-c1ncccn1

>  <pest or weed control at 0.004 mg (%)>
100

$$$$
>  <molecule>
C[C@H](Nc1nc2cc(OC(F)(F)F)cc(Cl)c2o1)c1ncnn1-c1ncc(Cl)cn1

>  <pest or weed control at 0.004 mg (%)>
80

$$$$
>  <molecule>
C[C@H](Nc1nc2cc(C(F)(F)F)cc(C(F)(F)F)c2o1)c1ncnn1-c1ccc(C(F)(F)F)cn1

>  <pest or weed control at 0.004 mg (%)>
80

$$$$
>  <molecule>
C[C@H](Nc1nc2cc(C(F)(F)F)cc(Br)c2o1)c1ncnn1-c1ccc(C#N)cn1

>  <pest or weed control at 0.004 mg (%)>
80

$$$$
>  <molecule>
CC(C)c1cc(Cl)c2oc(N[C@@H](C)c3ncnn3-c3ncc(Br)cn3)nc2c1

>  <pest or weed control at 0.004 mg (%)>
100

$$$$
>  <molecule>
C[C@H](Nc1nc2cc(C(F)(F)F)cc(Cl)c2o1)c1ncnn1-c1nccs1

>  <pest or weed control at 0.004 mg (%)>
80

$$$$
>  <molecule>
C[C@H](Nc1nc2cc(C(F)(F)F)cc(Cl)c2o1)c1ncnn1-c1ccc(C#N)cn1

>  <pest or weed control at 0.004 mg (%)>
100

$$$$
>  <molecule>
CC(Nc1nc2cc(C#N)cc(Cl)c2o1)c1ncnn1-c1ncccn1 (stereo not drawn)

>  <pest or weed control at 0.004 mg (%)>
100

$$$$
